assay system: T1, scCD3εγ
T1 chain 1: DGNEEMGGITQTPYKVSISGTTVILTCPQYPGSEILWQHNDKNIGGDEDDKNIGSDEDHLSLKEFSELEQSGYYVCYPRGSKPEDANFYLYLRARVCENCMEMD
T1 chain 2: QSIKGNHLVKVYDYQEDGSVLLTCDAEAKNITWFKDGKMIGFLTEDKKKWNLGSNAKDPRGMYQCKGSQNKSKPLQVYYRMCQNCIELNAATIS
assay: ELISA on scCD3εγ, DARPin titrated
assay readout: EC50 (read off the curve)

Completed entries (count: 3):
Quick one: EC50 (read off the curve) for 2-in-1 DARPin 23 (SEQ ID NO: 92) (designed binder, Family 2, from Parent nos 3 and 4; tag not specified) DLGKKLLQAARAGQLDEVRELLKAGADVNAKDSQGRTPLHLAAFAGHLEIVEVLLKAGADVNAKDHAGWTPLHLAAYAGHLEIVEVLVKAGADVNAKDTEGKTPLHIAAWFGHLEIVEVLLKAGADVNAKDKSGQTPLHLAAWAGHLEIVEVLLKAGADVNAKNSRGWTPLHTAAQTGHLEIFEVLLKAGADVNAKNDKRVTPLHLAAALGHLEIVEVLLKAGADVNARDSWGTTPADLAAKYGHQDIAEVLQKAA ?
~30 nM

Quick one: EC50 (read off the curve) for CD3-specific binding domain (SEQ ID NO: 3) (designed binder, biotinylated when used as immobilized SPR ligand (site not stated), also called α-CD3 DARPin) DLGQKLLEAAWAGQDDEVRELLKAGADVNAKNSRGWTPLHTAAQTGHLEIFEVLLKAGADVNAKNDKRVTPLHLAAALGHLEIVEVLLKAGADVNARDSWGTTPADLAAKYGHQDIAEVLQKAA ?
~3 nM

Quick one: EC50 (read off the curve) for 2-in-1 DARPin 25 (SEQ ID NO: 94) (designed binder, Family 2, from Parent nos 3 and 4; tag not specified) DLGKKLLQAARAGQLDEVRELLKAGADVNAKDSQGRTPLHLAAFAGHLEIVEVLLKAGADVNAKDHAGWTPLHLAAYAGHLEIVEVLVKAGADVNAKDTEGKTPLHIAAWFGHLEIVEVLLKAGADVNAKDKSGKTPLHLAARAGHLEIVEVLLKAGADVNAKDNSGQTPLHLAAWAGHLEIVEVLLKAGADVNAKNSRGWTPLHTAAQTGHLEIFEVLLKAGADVNAKNDKRVTPLHLAAALGHLEIVEVLLKAGADVNARDSWGTTPADLAAKYGHQDIAEVLQKAA ?
~10 nM

Please find the next binder below.
Quick one: EC50 (read off the curve) for 2-in-1 DARPin 24 (SEQ ID NO: 93) (designed binder, Family 2, from Parent nos 3 and 4; tag not specified) DLGKKLLQAARAGQLDEVRELLKAGADVNAKDSQGRTPLHLAAFAGHLEIVEVLLKAGADVNAKDHAGWTPLHLAAYAGHLEIVEVLVKAGADVNAKDTEGKTPLHIAAWFGHLEIVEVLLKAGADVNAKDKSGKTPLHLAARAGHLEIVEVLLKAGADVNAKDNSGQTPLHEAAWAGHLEIVEVLLKAGADVNAKNSRGWTPLHTAAQTGHLEIFEVLLKAGADVNAKNDKRVTPLHLAAALGHLEIVEVLLKAGADVNARDSWGTTPADLAAKYGHQDIAEVLQKAA ?
~10 nM
